Data origin, for the record: paper PMC10733988

- targetOrTestSystem: Recombinant human MAO-B (Homo sapiens)
- Sequence (P27338 whole entry): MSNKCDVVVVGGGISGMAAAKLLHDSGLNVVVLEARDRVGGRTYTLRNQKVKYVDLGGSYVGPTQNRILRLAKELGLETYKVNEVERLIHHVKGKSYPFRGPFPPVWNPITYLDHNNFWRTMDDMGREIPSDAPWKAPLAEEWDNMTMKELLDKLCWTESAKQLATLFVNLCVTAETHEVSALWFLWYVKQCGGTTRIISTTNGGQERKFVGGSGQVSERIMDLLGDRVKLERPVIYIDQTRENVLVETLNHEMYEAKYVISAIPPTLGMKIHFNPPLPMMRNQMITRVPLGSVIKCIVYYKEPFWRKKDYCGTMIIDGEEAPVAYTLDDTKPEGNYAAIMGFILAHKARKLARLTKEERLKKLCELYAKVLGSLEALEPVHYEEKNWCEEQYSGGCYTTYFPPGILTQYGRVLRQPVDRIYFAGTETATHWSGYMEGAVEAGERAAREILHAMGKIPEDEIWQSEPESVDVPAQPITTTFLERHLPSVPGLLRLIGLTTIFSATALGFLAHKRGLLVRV
- procedureText: MAO-B inhibition enzyme assay
- Assay type: biochemical
- recordedConditions: IC50 for MAO-A / IC50 for MAO-B
readout: SI (selectivity index)

>  <smilesData>
O=C(NN=Cc1ccccc1)c1ccc(Br)cc1

>  <targetOrTestSystem>
Recombinant human MAO-B (Homo sapiens)

>  <readout>
SI (selectivity index)

>  <result>
> 7.69

$$$$
>  <smilesData>
O=C(NN=Cc1ccc(Cl)cc1)c1ccc(Cl)cc1

>  <targetOrTestSystem>
Recombinant human MAO-B (Homo sapiens)

>  <readout>
SI (selectivity index)

>  <result>
> 108.11

$$$$
>  <smilesData>
O=C(NN=Cc1ccc(Br)cc1)c1ccc(Cl)cc1

>  <targetOrTestSystem>
Recombinant human MAO-B (Homo sapiens)

>  <readout>
SI (selectivity index)

>  <result>
> 25.97

$$$$
>  <smilesData>
O=C(NN=Cc1ccccc1)c1ccc(Cl)cc1

>  <targetOrTestSystem>
Recombinant human MAO-B (Homo sapiens)

>  <readout>
SI (selectivity index)

>  <result>
> 3.13

$$$$

Let us move to another entry and its SI (selectivity index).
Return reported SI (selectivity index); argument: `O=C(NN=Cc1ccc(F)cc1)c1ccc(Cl)cc1`
> 5.00
